System: HCT-116 human colorectal carcinoma cells
method description: Alamar Blue (AB) cell proliferation assay, HCT-116
Assay type: cell-based
assay setup: 96 h, Alamar Blue cell proliferation inhibition, HCT-116, four days
IC50 by entry:

- compound: "O=C(NCCNC1CCC1)c1c(=O)c2ccc(N3CCOCC3)nc2n2c1sc1ccccc12"
  IC50 / nM: 286
- compound: "CN1CCCC1CCNC(=O)c1cn2c3c(c(N4CCOCC4)c(F)cc3c1=O)Oc1ccccc1-2 (centres unmarked)"
  IC50 / nM: 389
- compound: "O=C(NCCN1CCCC1)c1c(=O)c2cc(F)c(N3CCOCC3)nc2n2c1sc1ccccc12"
  IC50 / nM: 81
- compound: "Cc1nccn1CCNC(=O)c1c(=O)c2ccc(N3CCOCC3)nc2n2c1sc1ccccc12"
  IC50 / nM: 166
- compound: "O=C(NCCNCCF)c1c(=O)c2cc(F)c(N3CCOCC3)nc2n2c1sc1ccccc12"
  IC50 / nM: 484
- compound: "O=C(NCCN1CCC(O)C1)c1c(=O)c2cc(F)c(N3CCOCC3)nc2n2c1sc1ccccc12 (centres unmarked)"
  IC50 / nM: 55
- compound: "Cn1c2ccccc2n2c3nc(N4CCOCC4)c(F)cc3c(=O)c(C(=O)NCCN3CCCC3)c12"
  IC50 / nM: 307
- compound: "Cn1c2ccccc2n2c3nc(N4CCOCC4)c(F)cc3c(=O)c(C(=O)N3CCN4CCCC4C3)c12 (centres unmarked)"
  IC50 / nM: 843
- compound: "O=C(NCCN1CC=CC1)c1cn2c3c(c(N4CCC(c5cnccn5)C4)c(F)cc3c1=O)Oc1cc3ccccc3cc1-2 (centres unmarked)"
  IC50 / nM: 398
- compound: "Cn1ccnc1CNC(=O)c1c(=O)c2ccc(N3CCOCC3)nc2n2c1sc1ccccc12"
  IC50 / nM: 145
- compound: "O=C(NNC1=NCCN1)c1c(=O)c2cc(F)c(N3CCOCC3)nc2n2c1sc1ccccc12"
  IC50 / nM: 1
- compound: "Cn1c2ccccc2n2c3nc(N4CCOCC4)ccc3c(=O)c(C(=O)NCCN3CCCC3)c12"
  IC50 / nM: 75
- compound: "CN1CCCCC1CNc1ccc2c(=O)c(C(=O)NCc3ccncc3)c3sc4ccccc4n3c2n1 (centres unmarked)"
  IC50 / nM: 8
- compound: "O=C(NCCN1CC=CC1)c1c(=O)c2cc(F)c(N3CCOCC3)nc2n2c1sc1ccccc12"
  IC50 / nM: 392
- compound: "CN1CCCC1CCNC(=O)c1c(=O)c2ccc(N3CCOCC3)nc2n2c1sc1ccccc12 (centres unmarked)"
  IC50 / nM: 55
- compound: "CN1CCCC1CCNC(=O)c1c(=O)c2cc(F)c(N3CCOCC3)nc2n2c1sc1ccccc12 (centres unmarked)"
  IC50 / nM: 337
- compound: "O=C(NCCN1CC=CCC1)c1c(=O)c2ccc(N3CCOCC3)nc2n2c1sc1ccccc12"
  IC50 / nM: 98
- compound: "O=C(c1c(=O)c2ccc(N3CCOCC3)nc2n2c1sc1ccccc12)N1CCN(c2ccccn2)CC1"
  IC50 / nM: 210
- compound: "O=C(NCCNCC(F)(F)F)c1c(=O)c2ccc(N3CCOCC3)nc2n2c1sc1ccccc12"
  IC50 / nM: 535
- compound: "Cc1cnc(CNC(=O)c2c(=O)c3ccc(N4CCN(C)CC4)nc3n3c2sc2ccccc23)cn1 [drawing 619]"
  IC50 / nM: 391
- compound: "CN1CCN(c2ccc3c(=O)c(C(=O)NC4CC4)c4n(C)c5ccccc5n4c3n2)CC1"
  IC50 / nM: 202
- compound: "O=C(NCCNCCF)c1c(=O)c2ccc(N3CCOCC3)nc2n2c1sc1ccccc12"
  IC50 / nM: 135
- compound: "CN1CCC(N(C)C(=O)c2c(=O)c3cc(F)c(N4CCOCC4)nc3n3c2sc2ccccc23)C1 (centres unmarked)"
  IC50 / nM: 174
- compound: "O=C(NCCN1CCCC1)c1c(=O)c2ccc(N3CCOCC3)nc2n2c1sc1ccccc12"
  IC50 / nM: 59
- compound: "CN1CCCCC1CNC(=O)c1c(=O)c2ccc(N3CCOCC3)nc2n2c1sc1ccccc12 (centres unmarked)"
  IC50 / nM: 6
- compound: "CN1CCCC1CCNC(=O)c1c(=O)c2cc(F)c(N3CCOCC3)nc2n2c3ccccc3n(C)c12 (centres unmarked)"
  IC50 / nM: 210
- compound: "O=C(NCCN1CCOCC1)c1c(=O)c2ccc(N3CCOCC3)nc2n2c1sc1ccccc12"
  IC50 / nM: 454
- compound: "O=C(NCCNCC1CCCO1)c1c(=O)c2ccc(N3CCOCC3)nc2n2c1sc1ccccc12 (centres unmarked)"
  IC50 / nM: 116
- compound: "CN1CCCC1CNC(=O)c1c(=O)c2cc(F)c(N3CCOCC3)nc2n2c1sc1ccccc12 (centres unmarked)"
  IC50 / nM: 128
- compound: "O=C(c1c(=O)c2ccc(N3CCOCC3)nc2n2c1sc1ccccc12)N1CCN(c2ncccn2)CC1"
  IC50 / nM: 461
- compound: "O=C(NCCNC1CC1)c1c(=O)c2ccc(N3CCOCC3)nc2n2c1sc1ccccc12 [drawing 604]"
  IC50 / nM: 65
- compound: "O=C(NCC1CCCN1)c1c(=O)c2cc(F)c(N3CCOCC3)nc2n2c1sc1ccccc12 (centres unmarked)"
  IC50 / nM: 9
